Catalogue of molecules with associated pIC50
# protocol.description: Inhibition of Clostridium welchii neuraminidase
# Set-up: species or system Clostridium perfringens
pIC50: −log10 of the molar value.
observation.type: pIC50

- CC(C)=CC1Oc2cc(O)ccc2-c2oc3cc4c(c(O)c3c(=O)c21)C=CC(C)(C)O4 (stereo not drawn) [CUDRAFLAVONE A]: 4.54
- O=c1c2cc(O)c(O)cc2oc2cc(O)c([C@@H]3O[C@H](CO)[C@@H](O)[C@H](O)[C@H]3O)c(O)c12 [MANGIFERIN]: 4.95
- O=C1C[C@@H](c2ccc(O)cc2O)Oc2cc(O)cc(O)c21: 5.09
- CC(C)=CCc1cc([C@@H]2CC(=O)c3c(cc(O)c(CC=C(C)C)c3O)O2)c(O)cc1O: 4.97
- CC(C)=CCc1c(O)cc2c(c1O)C(=O)C[C@@H](c1cc3c(cc1O)OC(C)(C)C=C3)O2 [CUDRAFLAVANONE A]: 5.82
- O=c1cc(-c2ccc(O)cc2O)oc2cc(O)cc(O)c12 [NORARTOCARPETIN]: 5.95
- CC1(C)C=Cc2c(cc3oc(-c4ccc(O)cc4O)cc(=O)c3c2O)O1: 5.22
- CC(C)=CCc1c(-c2ccc(O)cc2O)oc2cc3c(c(O)c2c1=O)C=CC(C)(C)O3 [CUDRAFLAVONE B]: 4.99
- O=C1C[C@@H](c2ccc(O)cc2)Oc2cc(O)cc(O)c21 [NARINGENIN]: 4.24
- O=c1cc(-c2ccc(O)cc2)oc2cc(O)cc(O)c12 [APIGENIN]: 4.66
- CC(C)(O)CCc1c(O)cc(O)c2c1O[C@H](c1cc3c(cc1O)OC(C)(C)C=C3)CC2=O: 6.42
- O=c1cc(-c2ccc(O)c(O)c2)oc2cc(O)cc(O)c12 [LUTEOLIN]: 5.34
- O=C1C[C@@H](c2ccc(O)c(O)c2)Oc2cc(O)cc(O)c21 [ERIODICTYOL]: 4.80

Reference source: ChEMBL document CHEMBL1155360
